assay: Kinetic study: plasma kinetics of TMC278 after single IM or SC injection of a nanosuspension; type: in vivo, male beagle dogs; details: male, beagle, dog, plasma, intramuscular, 5 mg/kg, plasma concentration of TMC278, single IM 5 mg/kg TMC278 nanosuspension, dog 18186, 144 h (d6)
reported-endpoint: concentration at 144 h (ng/mL)
Please reply with the bare figure in ng/mL and do not write the unit itself.

# return recorded concentration at 144 h for entry `Cc1cc(C=CC#N)cc(C)c1Nc1ccnc(Nc2ccc(C#N)cc2)n1`
91.9

====

test: Kinetic study: plasma kinetics of TMC278 after single IM or SC injection of a nanosuspension; assay type: in vivo, male beagle dogs; conditions: male, beagle, dog, plasma, im, 5 mg/kg, single IM 5 mg/kg TMC278 nanosuspension, dog 17264; read-out: AUC0-696 h
reported-endpoint: AUC(0-t) (ng·h/mL)
Please reply with the bare figure in ng·h/mL and do not write the unit itself.

# return recorded AUC(0-t) for entry `Cc1cc(C=CC#N)cc(C)c1Nc1ccnc(Nc2ccc(C#N)cc2)n1`
34800

====

assay: Kinetic study: plasma kinetics of TMC278 after single IM or SC injection of a nanosuspension; assay type: in vivo, male beagle dogs; details: male, beagle, dog, plasma, sc, 5 mg/kg, plasma concentration of TMC278, single SC 5 mg/kg TMC278 nanosuspension, mean of 2 dogs, 480 h (d20)
reported-endpoint: concentration at 480 h (ng/mL)
Please reply with the bare figure in ng/mL and do not write the unit itself.

# return recorded concentration at 480 h for entry `Cc1cc(C=CC#N)cc(C)c1Nc1ccnc(Nc2ccc(C#N)cc2)n1`
25.5

====

experiment: Kinetic study: plasma kinetics of TMC278 after single IM or SC injection of a nanosuspension; type: in vivo, male beagle dogs; settings: male, beagle, dog, plasma, intramuscular, 5 mg/kg, plasma concentration of TMC278, single IM 5 mg/kg TMC278 nanosuspension, dog 18186, 3 h
reported-endpoint: concentration at 3 h (ng/mL)
Please reply with the bare figure in ng/mL and do not write the unit itself.

# return recorded concentration at 3 h for entry `Cc1cc(C=CC#N)cc(C)c1Nc1ccnc(Nc2ccc(C#N)cc2)n1`
145

====

assay: Kinetic study: plasma kinetics of TMC278 after single IM or SC injection of a nanosuspension; format: in vivo, male beagle dogs; conditions: male, beagle, dog, plasma, intramuscular, 5 mg/kg, plasma concentration of TMC278, single IM 5 mg/kg TMC278 nanosuspension, mean of 2 dogs, 480 h (d20)
reported-endpoint: concentration at 480 h (µg/mL)
Please reply with the bare figure in µg/mL and do not write the unit itself.

# return recorded concentration at 480 h for entry Cc1cc(C=CC#N)cc(C)c1Nc1ccnc(Nc2ccc(C#N)cc2)n1 [TMC278]
0.0186

====

assay: Kinetic study: plasma kinetics of TMC278 after single IM or SC injection of a nanosuspension; type: in vivo, male beagle dogs; settings: male, beagle, dog, plasma, intramuscular, 5 mg/kg, plasma concentration of TMC278, single IM 5 mg/kg TMC278 nanosuspension, mean of 2 dogs, 24 h (d1)
reported-endpoint: concentration at 24 h (ng/mL)
Please reply with the bare figure in ng/mL and do not write the unit itself.

# return recorded concentration at 24 h for entry `Cc1cc(C=CC#N)cc(C)c1Nc1ccnc(Nc2ccc(C#N)cc2)n1`
135

====

experiment: Kinetic study: plasma kinetics of TMC278 after single IM or SC injection of a nanosuspension; type: in vivo, male beagle dogs; details: male, beagle, dog, plasma, sc, 5 mg/kg, single SC 5 mg/kg TMC278 nanosuspension, mean of 2 dogs; read-out: Tmax
reported-endpoint: Tmax (h)
Please reply with the bare figure in h and do not write the unit itself.

# return recorded Tmax for entry `Cc1cc(C=CC#N)cc(C)c1Nc1ccnc(Nc2ccc(C#N)cc2)n1`
144

====

assay: Kinetic study: plasma kinetics of TMC278 after single IM or SC injection of a nanosuspension; type: in vivo, male beagle dogs; details: male, beagle, dog, plasma, sc, 5 mg/kg, plasma concentration of TMC278, single SC 5 mg/kg TMC278 nanosuspension, mean of 2 dogs, 8 h
reported-endpoint: concentration at 8 h (ng/mL)
Please reply with the bare figure in ng/mL and do not write the unit itself.

# return recorded concentration at 8 h for entry `Cc1cc(C=CC#N)cc(C)c1Nc1ccnc(Nc2ccc(C#N)cc2)n1`
20.7

====

experiment: Kinetic study: plasma kinetics of TMC278 after single IM or SC injection of a nanosuspension; format: in vivo, male beagle dogs; details: male, beagle, dog, plasma, intramuscular, 5 mg/kg, plasma concentration of TMC278, single IM 5 mg/kg TMC278 nanosuspension, dog 18186, 1 h
reported-endpoint: concentration at 1 h (ng/mL)
Please reply with the bare figure in ng/mL and do not write the unit itself.

# return recorded concentration at 1 h for entry `Cc1cc(C=CC#N)cc(C)c1Nc1ccnc(Nc2ccc(C#N)cc2)n1`
82.6

====

test: Kinetic study: plasma kinetics of TMC278 after single IM or SC injection of a nanosuspension; format: in vivo, male beagle dogs; details: male, beagle, dog, plasma, intramuscular, 5 mg/kg, plasma concentration of TMC278, single IM 5 mg/kg TMC278 nanosuspension, dog 17264, 1200 h (d50)
reported-endpoint: concentration at 1200 h (ng/mL)
Please reply with the bare figure in ng/mL and do not write the unit itself.

# return recorded concentration at 1200 h for entry `Cc1cc(C=CC#N)cc(C)c1Nc1ccnc(Nc2ccc(C#N)cc2)n1`
3.4

====

assay: Kinetic study: plasma kinetics of TMC278 after single IM or SC injection of a nanosuspension; type: in vivo, male beagle dogs; conditions: male, beagle, dog, plasma, intramuscular, 5 mg/kg, plasma concentration of TMC278, single IM 5 mg/kg TMC278 nanosuspension, mean of 2 dogs, 312 h (d13)
reported-endpoint: concentration at 312 h (ng/mL)
Please reply with the bare figure in ng/mL and do not write the unit itself.

# return recorded concentration at 312 h for entry `Cc1cc(C=CC#N)cc(C)c1Nc1ccnc(Nc2ccc(C#N)cc2)n1`
35.7

====

experiment: Kinetic study: plasma kinetics of TMC278 after single IM or SC injection of a nanosuspension; assay type: in vivo, male beagle dogs; conditions: male, beagle, dog, plasma, sc, 5 mg/kg, plasma concentration of TMC278, single SC 5 mg/kg TMC278 nanosuspension, dog 19129, 384 h (d16)
reported-endpoint: concentration at 384 h
Report the figure along with its unit, number first.

# return recorded concentration at 384 h for entry Cc1cc(C=CC#N)cc(C)c1Nc1ccnc(Nc2ccc(C#N)cc2)n1 [TMC278]
21.7 ng/mL

====

assay: Kinetic study: plasma kinetics of TMC278 after single IM or SC injection of a nanosuspension; type: in vivo, male beagle dogs; conditions: male, beagle, dog, plasma, intramuscular, 5 mg/kg, plasma concentration of TMC278, single IM 5 mg/kg TMC278 nanosuspension, dog 18186, 1536 h (d64)
reported-endpoint: concentration at 1536 h (ng/mL)
Please reply with the bare figure in ng/mL and do not write the unit itself.

# return recorded concentration at 1536 h for entry Cc1cc(C=CC#N)cc(C)c1Nc1ccnc(Nc2ccc(C#N)cc2)n1 [TMC278]
2.44

====

assay: Kinetic study: plasma kinetics of TMC278 after single IM or SC injection of a nanosuspension; assay type: in vivo, male beagle dogs; details: male, beagle, dog, plasma, intramuscular, 5 mg/kg, plasma concentration of TMC278, single IM 5 mg/kg TMC278 nanosuspension, mean of 2 dogs, 1032 h (d43)
reported-endpoint: concentration at 1032 h (ng/mL)
Please reply with the bare figure in ng/mL and do not write the unit itself.

# return recorded concentration at 1032 h for entry Cc1cc(C=CC#N)cc(C)c1Nc1ccnc(Nc2ccc(C#N)cc2)n1 [TMC278]
5.19

====

experiment: Kinetic study: plasma kinetics of TMC278 after single IM or SC injection of a nanosuspension; type: in vivo, male beagle dogs; conditions: male, beagle, dog, plasma, intramuscular, 5 mg/kg, plasma concentration of TMC278, single IM 5 mg/kg TMC278 nanosuspension, dog 17264, 192 h (d8)
reported-endpoint: concentration at 192 h (ng/mL)
Please reply with the bare figure in ng/mL and do not write the unit itself.

# return recorded concentration at 192 h for entry `Cc1cc(C=CC#N)cc(C)c1Nc1ccnc(Nc2ccc(C#N)cc2)n1`
72.4

====

assay: Kinetic study: plasma kinetics of TMC278 after single IM or SC injection of a nanosuspension; format: in vivo, male beagle dogs; conditions: male, beagle, dog, plasma, sc, 5 mg/kg, plasma concentration of TMC278, single SC 5 mg/kg TMC278 nanosuspension, dog 19129, 1368 h (d57);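 also: healthy male beagle dogs injected in both biceps femoris muscles (IM) or both thoracal sides (SC), total volume 0.2 mL/kg, drug measured in plasma from blood samples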
reported-endpoint: concentration at 1368 h
Report the figure along with its unit, number first.

# return recorded concentration at 1368 h for entry `Cc1cc(C=CC#N)cc(C)c1Nc1ccnc(Nc2ccc(C#N)cc2)n1`
4.78 ng/mL
